Hello, the source for this data is paper PMC6753678, in case you need it.

compounds and their reported % inhibition, Replicate A
Tested on: P. berghei ookinete development
CONDITIONS: primary screen at 1 μM, replicate A
METRIC: % inhibition, Replicate A (%)

COMPOUND: Cc1nc(NC2=NCN(CCCN3CCOCC3)CN2)nc2c(C)cccc12
UNITS OF MEASURE: %
READOUT NUMBER: 51.18
//
COMPOUND: CCCCCCc1c(C)nc2cc(OC)ccc2c1O
UNITS OF MEASURE: %
READOUT NUMBER: 110.05
//
COMPOUND: Cc1nc(C)c(-c2ccc(Sc3ccc(Cl)cc3)cc2)c(O)c1Br
UNITS OF MEASURE: %
READOUT NUMBER: 89.90
//
COMPOUND: COc1cccc(Cn2ccc3c4c(N)nc(N)nc4ccc32)c1
UNITS OF MEASURE: %
READOUT NUMBER: 65.46
//
COMPOUND: Cc1[nH]c(C)c(C2CCC(c3ccc(Cl)cc3)CC2)c(=O)c1Cl (stereo not drawn)
UNITS OF MEASURE: %
READOUT NUMBER: 93.67
//
COMPOUND: O=C(Nc1ccc(Cl)cc1)c1cc(Cl)cc2nc(C(F)(F)F)[nH]c12
UNITS OF MEASURE: %
READOUT NUMBER: 65.74
//
COMPOUND: CN(C)S(=O)(=O)n1ncc2c3c(N)nc(N)nc3ccc21.Cl
UNITS OF MEASURE: %
READOUT NUMBER: 39.05
//
COMPOUND: Br.CC(CCON1C(N)=NC(N)=NC1(C)C)c1ccc(Cl)c(Cl)c1 (stereo not drawn)
UNITS OF MEASURE: %
READOUT NUMBER: 47.79
//
COMPOUND: Br.CC1(C)N=C(N)N=C(N)N1OCCc1cccc2ccccc12
UNITS OF MEASURE: %
READOUT NUMBER: 57.64
//
COMPOUND: Cc1[nH]c(C)c(-c2ccc(-c3ccc(C(F)(F)F)cc3C(F)(F)F)nc2)c(=O)c1Br
UNITS OF MEASURE: %
READOUT NUMBER: 94.49
//
COMPOUND: COc1nc2c(CCN3CC[C@H](NCc4ccc5c(c4)NC(=O)CO5)[C@H](O)C3)c(Cl)cnc2cc1F.Cl
UNITS OF MEASURE: %
READOUT NUMBER: 46.55
//
COMPOUND: Cc1cc(=O)c2cc(-c3ccc(OC(F)(F)F)cc3)ccc2[nH]1
UNITS OF MEASURE: %
READOUT NUMBER: 37.82
//
COMPOUND: Cc1[nH]c(C)c(-c2ccc(CCc3cccc(C(F)(F)F)c3)nc2)c(=O)c1Cl
UNITS OF MEASURE: %
READOUT NUMBER: 91.00
//
COMPOUND: Cc1[nH]c(C)c(-c2ccc(-c3ccc(OCC(F)(F)F)cc3)nc2)c(=O)c1Cl
UNITS OF MEASURE: %
READOUT NUMBER: 58.32
//
COMPOUND: O=C(NCC1CCCCC1)c1cc(=O)c2ccccc2o1
UNITS OF MEASURE: %
READOUT NUMBER: 49.08
//
COMPOUND: O=C(c1ccco1)N1CCN(c2ccc([N+](=O)[O-])c(NC3CC3)c2)CC1
UNITS OF MEASURE: %
READOUT NUMBER: 106.00
//
COMPOUND: CCOC(=O)c1c[nH]c2c(ccc3ccccc32)c1=O
UNITS OF MEASURE: %
READOUT NUMBER: 88.11
//
COMPOUND: Cl.Nc1nc(N)c2c(ccc3nn(S(=O)(=O)N4CCCC4)cc32)n1
UNITS OF MEASURE: %
READOUT NUMBER: 55.32

---

Tested on: P. berghei ookinete development
CONDITIONS: read-out: Pb ODA IC50; this manuscript
pIC50: −log10 of the molar value.
METRIC: pIC50

COMPOUND: COc1ccc(CCc2ccc(-c3c(C)[nH]c(C)c(Cl)c3=O)cc2)cc1OC
TARGET ENTITY: P. berghei ookinete development
METRIC: pIC50
READOUT NUMBER: 6.55
//
COMPOUND: Nc1nc(N)c2c(ccc3c2ccn3CCCC(F)(F)F)n1
TARGET ENTITY: P. berghei ookinete development
METRIC: pIC50
READOUT NUMBER: 5.22
//
COMPOUND: Cc1[nH]c(C)c(-c2ccc(-c3cccc(Cl)c3)nc2)c(=O)c1Cl
TARGET ENTITY: P. berghei ookinete development
METRIC: pIC50
READOUT NUMBER: 6.17
//
COMPOUND: Cc1ccc(-n2c(Sc3ncnc4sccc34)nnc2N2CCCC2)cc1
TARGET ENTITY: P. berghei ookinete development
METRIC: pIC50
READOUT NUMBER: 6.66
//
COMPOUND: CC(C#N)Cc1ccc(-c2cnc(N)c3cc(-c4ccnc(N)n4)ccc23)cc1 (centres unmarked)
TARGET ENTITY: P. berghei ookinete development
METRIC: pIC50
READOUT NUMBER: 6.07
//
COMPOUND: CN(Cc1cccc(F)c1)C1CCN(c2cc(NC(=O)c3ccc(F)cc3)ccn2)CC1.O=C(O)C(F)(F)F
TARGET ENTITY: P. berghei ookinete development
METRIC: pIC50
READOUT NUMBER: 5.22
//
COMPOUND: COc1ccc2nccc([C@@H](O)CN3CCC(NCc4cc5cccc6c5n(c4=O)CCC6)CC3)c2c1.O=C(O)C(=O)O
TARGET ENTITY: P. berghei ookinete development
METRIC: pIC50
READOUT NUMBER: 5.46
//
COMPOUND: CCCCC1=CC2C(=O)C(C(=O)OC)=CN=C2C=C1OCc1ccccc1 (centres unmarked)
TARGET ENTITY: P. berghei ookinete development
METRIC: pIC50
READOUT NUMBER: 5.52

---

System: P. berghei ookinete development
CONDITIONS: read-out: Pb Ookinete development assay IC50; dose response confirmation
pIC50: −log10 of the molar value.
Threshold check on pIC50: at or above 6 gives criterion met, strictly below gives criterion not met.

MOLECULE: CSc1ccc(C=CC(=O)NC(=O)c2ccccc2O)cc1
LABEL CLASS: criterion met

MOLECULE: CC(ON1C(N)=NC(N)=NC1(C)C)c1ccccc1 (stereo not drawn)
LABEL CLASS: criterion not met

MOLECULE: N#Cc1ccc(Cn2ccc3c4c(N)nc(N)nc4ccc32)cc1
LABEL CLASS: criterion not met

MOLECULE: O=C(O)CCSSc1cccc[n+]1[O-]
LABEL CLASS: criterion not met

MOLECULE: Br.CCCc1cc(C)ccc1OCCCON1C(N)=NC(N)=NC1(C)C
LABEL CLASS: criterion not met

MOLECULE: O=C(Nc1nc(-c2ccccn2)cs1)c1ccc(S(=O)(=O)N2CCc3ccccc32)cc1
LABEL CLASS: criterion not met

MOLECULE: Cc1[nH]c(C)c(-c2ccc(Oc3ccc(C(F)(F)F)cc3)cc2)c(=O)c1Br
LABEL CLASS: criterion met

MOLECULE: Br.CC(CCON1C(N)=NC(N)=NC1(C)C)c1ccc(Cl)cc1 (stereo not drawn)
LABEL CLASS: criterion not met

---

System: HepG2 cells
ASSAY EXPLANATION: HepG2 cytotoxicity assay
CONDITIONS: unified HepG2 cytotoxicity across the three screens

COMPOUND: O=C(Nc1cc(Cl)c(Cl)cc1NC(=O)c1cccc(-c2ccccc2)c1O)c1cccc(-c2ccccc2)c1O [TCMDC-139548]
Unified cytotox, µM: 3.09
//
COMPOUND: COc1cc2nc(-c3ccc(Br)cc3)cc(N)c2cc1OC [TCMDC-138933]
Unified cytotox, µM: 4.95
//
COMPOUND: Clc1ccc(Nc2nc(NCc3ccccc3)nc(N/N=C/c3ccccn3)n2)cc1 [TCMDC-138557]
Unified cytotox, µM: 13.96
//
COMPOUND: Nc1nc(N)c2cc(NC(=O)c3ccc(Cl)c(Cl)c3)ccc2n1 [TCMDC-141982]
Unified cytotox, µM: 2.14
//
COMPOUND: CC(Cc1ccc(NC(=O)c2ccc(CNCCc3ccccc3)cc2)cc1)NCCc1cccc(Cl)c1.Cl (stereo not shown) [TCMDC-139867]
Unified cytotox, µM: 4.17
//
COMPOUND: COc1cc2nc(N3CCC(CNC(=O)c4ccc(-c5ccc(Cl)cc5)cc4)CC3)nc(N)c2cc1OC [TCMDC-138718]
Unified cytotox, µM: 4.22
//
COMPOUND: Oc1ccc2[nH]cc(C3CCN(CCCNCc4ccc(-c5ccccc5)cc4)CC3)c2c1 [TCMDC-139047]
Unified cytotox, µM: 5.62
//
COMPOUND: CCOc1ccc2c(=NN=Cc3cc(OC)c(OC)cc3OC)cc(C)[nH]c2c1 [TCMDC-142207]
Unified cytotox, µM: 12.17
//
COMPOUND: Cl.OC(CNCCCCCCNCC(O)c1ccc(Cl)c(Cl)c1)c1ccc(Cl)c(Cl)c1 (stereo not shown) [TCMDC-141987]
Unified cytotox, µM: 4.27
//
COMPOUND: Cl.O=C(NCCCCN1CCC(c2ccc3c(c2O)CCCC3)CC1)c1ccc(NC(=O)c2ccc(Cl)cc2)cc1 [TCMDC-138645]
Unified cytotox, µM: 3.80
//
COMPOUND: O=C(/C=C/c1ccc(Cl)c(Cl)c1)N1CCC(CN2CCC(c3c[nH]c4ccncc34)CC2)CC1 [TCMDC-140074]
Unified cytotox, µM: 5.32
//
COMPOUND: CN(C)CCCNCc1ccc(-c2ccc(C(F)(F)F)cc2)cc1 [TCMDC-140011]
Unified cytotox, µM: 4.90
//
COMPOUND: c1ccc(-c2nc(Nc3nc4ccccc4[nH]3)[nH]c2-c2ccccc2)cc1 [TCMDC-139099]
Unified cytotox, µM: 10.98
//
COMPOUND: CCN(CC)CCN(Cc1ccc(-c2ccc(C(F)(F)F)cc2)cc1)C(=O)Cn1cc(Cc2cnn(C)c2)c(=O)nc1/C=C/c1ccc(F)cc1.O=C(O)C(O)C(O)C(=O)O [TCMDC-140741]
Unified cytotox, µM: 13.81
//
COMPOUND: CN(C)CCOc1ccc(NC(=O)NC(C)(C)c2nc(-c3ccc(Cl)c(O)c3)c(-c3ccncc3)[nH]2)cc1.Cl [TCMDC-140744]
Unified cytotox, µM: 14.30
//
COMPOUND: Clc1cccc(C23N=C(Nc4nc5ccccc5[nH]4)NC2(c2ccccc2)NC(Nc2nc4ccccc4[nH]2)=N3)c1 (stereo not shown) [TCMDC-139089]
Unified cytotox, µM: 42.76
